Test system: U-2932
TEST_METHOD_NOTES: growth inhibition by drug alone (1 - RLU/untreated control) (fraction); higher = stronger inhibition
CONDITION: 10 nM; time (day): 3; 177Lu-lilotomab satetraxetan 0 ug/ml
Label 1.0 when growth inhibition by drug alone is at or above 0.1; otherwise label 0.0.

MOLECULE	CLASS_LABEL
C[C@@H]1C[C@H]2[C@@H]3CCC4=CC(=O)C=C[C@]4(C)[C@@]3(F)[C@@H](O)C[C@]2(C)[C@@]1(O)C(=O)CO	1.0
CNC(=O)c1cc(Oc2ccc(NC(=O)Nc3ccc(Cl)c(C(F)(F)F)c3)cc2)ccn1	0.0
Cn1cc(-c2ccc3nnc(Sc4ccc5ncccc5c4)n3n2)cn1	0.0
C=CC(=O)N1CCC[C@@H](n2nc(-c3ccc(Oc4ccccc4)cc3)c3c(N)ncnc32)C1	1.0
O=C(/C=C/c1cccc(S(=O)(=O)Nc2ccccc2)c1)NO	1.0
COc1cc(OC2CCN(C)CC2)ccc1Nc1ncc2c(n1)n(C1CCCC1)c(=O)n2C	0.0
O=c1c(O)c(-c2ccc(O)c(O)c2)oc2cc(O)cc(O)c12 [Quercetin (Sophoretin)]	1.0
CNCc1ccc(-c2[nH]c3cc(F)cc4c3c2CCNC4=O)cc1	0.0
CC(C)C[C@H](NC(=O)[C@H](Cc1ccccc1)NC(=O)c1cnccn1)B(O)O	1.0
CCC(=O)N1CCN(c2ccc(-n3c(=O)ccc4cnc5ccc(-c6cnc7ccccc7c6)cc5c43)cc2C(F)(F)F)CC1	1.0
CN1CCN(c2cccc(Nc3nc4c(-c5ccc(S(C)(=O)=O)cc5)cccn4n3)c2)CC1	0.0
CCOc1cc2ncc(C#N)c(Nc3ccc(F)c(Cl)c3)c2cc1NC(=O)/C=C/CN(C)C [Pelitinib (EKB-569)]	0.0
CC(=O)c1c(C)c2cnc(Nc3ccc(N4CCNCC4)cn3)nc2n(C2CCCC2)c1=O	0.0
CN1CCN(c2nc(C3=C(c4c[nH]c5ccccc45)C(=O)NC3=O)c3ccccc3n2)CC1	1.0
CNC(=O)c1ccc(C)c(-n2c(C)cc(OCc3ccc(F)cc3F)c(Br)c2=O)c1	0.0

* * *

System: RIVA
TEST_METHOD_NOTES: growth inhibition by drug plus 177Lu-lilotomab satetraxetan (1 - RLU/untreated control) (fraction); higher = stronger inhibition
CONDITION: 100 nM; time (day): 4; 177Lu-lilotomab satetraxetan 0.5 ug/ml
Structures can show the parent of a compound that is named as a salt.
Documented growth inhibition by drug plus 177Lu-lilotomab satetraxetan across a set of molecules
READOUT_LABEL: growth inhibition by drug plus 177Lu-lilotomab satetraxetan

MOLECULE	RESULT
CC[C@@]1(O)C(=O)OCc2c1cc1n(c2=O)Cc2cc3c(CN(C)C)c(O)ccc3nc2-1 [Topotecan HCl]	0.883
COc1cc([C@@H]2c3cc4c(cc3[C@@H](O[C@@H]3O[C@@H]5CO[C@@H](C)O[C@H]5[C@H](O)[C@H]3O)[C@H]3COC(=O)[C@H]23)OCO4)cc(OC)c1O [Etoposide (VP-16)]	0.776
CCCC(CCC)C(=O)O [Valproic acid sodium salt (Sodium valproate)]	0.539
Cc1ccc(C(=O)Nc2ccc(CN3CCN(C)CC3)c(C(F)(F)F)c2)cc1C#Cc1cnc2cccnn12	0.752
C[C@@H]1C[C@H]2[C@@H]3CCC4=CC(=O)C=C[C@]4(C)[C@@]3(F)[C@@H](O)C[C@]2(C)[C@@]1(O)C(=O)CO [Dexamethasone]	0.429
Cc1nc(Nc2ncc(C(=O)Nc3c(C)cccc3Cl)s2)cc(N2CCN(CCO)CC2)n1	0.89
Nc1ccc(C(=O)Nc2cccc(-c3nc(N4CCOCC4)c4oc5ncccc5c4n3)c2)cn1	0.566

* * *

Test system: RIVA
TEST_METHOD_NOTES: growth inhibition by drug alone (1 - RLU/untreated control) (fraction); higher = stronger inhibition
CONDITION: 100 nM; time (day): 3; 177Lu-lilotomab satetraxetan 0 ug/ml
Counter-ions that a name gives are not always drawn.
READOUT_LABEL: growth inhibition by drug alone

COMPOUND	READOUT_LABEL	RESULT
C[C@H](NC(=O)Cc1cc(F)cc(F)c1)C(=O)N[C@H](C(=O)OC(C)(C)C)c1ccccc1	growth inhibition by drug alone	-0.299
Cn1nnc2c(C(N)=O)ncn2c1=O [Temozolomide]	growth inhibition by drug alone	0.0972
CCC(=O)N1CCN(c2ccc(-n3c(=O)ccc4cnc5ccc(-c6cnc7ccccc7c6)cc5c43)cc2C(F)(F)F)CC1 [Torin 1]	growth inhibition by drug alone	0.409
COc1cc([C@@H]2c3cc4c(cc3[C@@H](O[C@@H]3O[C@@H]5CO[C@@H](C)O[C@H]5[C@H](O)[C@H]3O)[C@H]3COC(=O)[C@H]23)OCO4)cc(OC)c1O [Etoposide (VP-16)]	growth inhibition by drug alone	-0.0322
CO[C@H]1/C=C\C=C(/C)C(=O)NC2=CC(=O)C(NCCN(C)C)=C(C[C@@H](C)C[C@H](OC)[C@H](O)[C@@H](C)/C=C(\C)[C@@H]1OC(N)=O)C2=O [17-DMAG HCl (Alvespimycin)]	growth inhibition by drug alone	0.922
Cn1cncc1[C@@](N)(c1ccc(Cl)cc1)c1ccc2c(c1)c(-c1cccc(Cl)c1)cc(=O)n2C [Tipifarnib (Zarnestra)]	growth inhibition by drug alone	-0.0203

* * *

System: RIVA
TEST_METHOD_NOTES: growth inhibition by drug plus 177Lu-lilotomab satetraxetan (1 - RLU/untreated control) (fraction); higher = stronger inhibition
CONDITION: 10 nM; time (day): 3; 177Lu-lilotomab satetraxetan 0.5 ug/ml
Structures can show the parent of a compound that is named as a salt.
Cut-off 0.5 on growth inhibition by drug plus 177Lu-lilotomab satetraxetan, inclusive. At or above means 1; below means -1.

COMPOUND	TESTED_ON	CLASS_LABEL
CC/C(=C(\c1ccccc1)c1ccc(OCCN(C)C)cc1)c1ccccc1 [Tamoxifen Citrate (Nolvadex)]	RIVA	1
N#Cc1ccc(NC(=O)Nc2ccccc2Br)c2n[nH]nc12	RIVA	1
Cc1[nH]c2ccccc2c1CCNCc1ccc(/C=C/C(=O)NO)cc1	RIVA	1
C[C@]1(O)C[C@@H](c2nc(-c3ccc4ccc(-c5ccccc5)nc4c3)c3c(N)nccn32)C1	RIVA	-1
COC(=O)c1ccc2c(C(=Nc3ccc(N(C)C(=O)CN4CCN(C)CC4)cc3)c3ccccc3)c(O)[nH]c2c1	RIVA	-1
COc1cc2ncnc(Nc3ccc(F)c(Cl)c3)c2cc1OCCCN1CCOCC1	RIVA	-1
O=C(CCc1ccc(O)cc1)c1c(O)cc(O)cc1O [Phloretin (Dihydronaringenin)]	RIVA	-1
Cc1ccc(-n2nc(C(C)(C)C)cc2NC(=O)Nc2ccc(OCCN3CCOCC3)c3ccccc23)cc1	RIVA	1
COC(=O)C1=C(C)NC(C)=C(C(=O)OCCCN2CCC(c3ccccc3)(c3ccccc3)CC2)[C@H]1c1cccc([N+](=O)[O-])c1 [S-(+)-Niguldipine hydrochloride]	RIVA	1
COc1cc2ncnc(Nc3cccc(Br)c3)c2cc1OC	RIVA	-1
O=C(O)c1ccc2cc(-c3ccc(O)c(C45CC6CC(CC(C6)C4)C5)c3)ccc2c1	RIVA	1
CC(C)(C)c1cnc(CSc2cnc(NC(=O)C3CCNCC3)s2)o1	RIVA	-1
COc1cccc2c1C(=O)c1c(O)c3c(c(O)c1C2=O)C[C@@](O)(C(=O)CO)C[C@@H]3O[C@H]1C[C@H](N)[C@@H](O)[C@H](C)O1 [Epirubicin Hydrochloride]	RIVA	1
OCCn1cc(-c2cnc3nnn(Cc4ccc5ncccc5c4)c3n2)cn1	RIVA	1
Oc1cccc(-c2nc(N3CCOCC3)c3oc4ncccc4c3n2)c1	RIVA	1
C[C@@H](N)[C@H]1CC[C@H](C(=O)Nc2ccncc2)CC1	RIVA	1
C#Cc1cccc(Nc2ncnc3cc(OC)c(OCCCCCCC(=O)NO)cc23)c1	RIVA	-1

* * *

System: RIVA
TEST_METHOD_NOTES: growth inhibition by drug alone (1 - RLU/untreated control) (fraction); higher = stronger inhibition
CONDITION: 10 nM; time (day): 5; 177Lu-lilotomab satetraxetan 0 ug/ml
Counter-ions that a name gives are not always drawn.
READOUT_LABEL: growth inhibition by drug alone

MOLECULE	RECORDED_NUMBER
CS(=O)(=O)N1CCc2c(-c3cnc(N)nc3)nc(N3CCOCC3)nc21	-0.0356
Cc1nc(N)sc1-c1ccnc(Nc2ccc(N3CCOCC3)cc2)n1	-0.156
CC(C)[C@H](C(=O)Nc1ccc(C(=O)NO)cc1)c1ccccc1	-0.0451
CCCC(=O)[O-].[Na+] [Sodium butyrate]	-0.304
CC(=O)[C@]1(O)Cc2c(O)c3c(c(O)c2[C@@H](O[C@H]2C[C@H](N)[C@H](O)[C@H](C)O2)C1)C(=O)c1ccccc1C3=O [Idarubicin HCl]	0.786
O=c1cc(N2CCOCC2)oc2c(-c3ccccc3)cccc12	-0.0125
Cc1cc(Nc2cc(N3CCN(C)CC3)nc(Sc3ccc(NC(=O)C4CC4)cc3)n2)n[nH]1	-0.11
CC1(C)CNc2cc(NC(=O)c3cccnc3NCc3ccncc3)ccc21 [Motesanib Diphosphate]	-0.283
CC1(COc2ccc3c(c2)ncn3-c2ccc3cccc(N4CCC(N)CC4)c3n2)COC1	-0.0736
